Molecular target: T1, human EGFR-His antigen (human, UniProt P00533 25-645)
T1 construct: also called hEGFR-His
Experiment: SPR Biacore 8K, antibody on Protein A chip, 1:1 fit
log10 koff values by entry
Test Readout: log10 koff (log10 of the value in s⁻¹)

binder="ZalH9 (antibody, human IgG1, kappa, V domains shown, anti-EGFR zalutumumab variant, human IgG1) VH: QVQLVESGGGVVQPGRSLRLSCAASGFTFSSYGMHWVRQAPGKGLEWVAVIWDDGSYKYYGDSVKGRFTISRDNSKNTLYLQMNSLRAEDTAVYYCARDGVTMVRGVMKDYFDYWGQGTLVTVSS VL: DIQLTQSPSSLSASVGDRVTITCRASQDISSALVWYQQKPGKAPKLLIYDASSLESGVPSRFSGSESGTDFTLTISSLQPEDFATYYCQQFNSYPLTFGGGTKVEIKR" assay_value=-2.63
binder="ZalH3 (antibody, human IgG1, kappa, V domains shown, anti-EGFR zalutumumab variant, human IgG1) VH: QVQLVESGGGVVQPGRSLRLSCAASGFTFSTYGMHWVRQAPGKGLEWVAVIWDDGSYKYYGDSVKGRFTISRDNSKNTLYLQMNSLRAEDTAVYYCARDGLTMVRGVMKDYFDYWGQGTLVTVSS VL: DIQLTQSPSSLSASVGDRVTITCRASQDISSALVWYQQKPGKAPKLLIYDASSLESGVPSRFSGSESGTDFTLTISSLQPEDFATYYCQQFNSYPLTFGGGTKVEIKR" assay_value=-1.61
binder="ZalH5 (antibody, human IgG1, kappa, V domains shown, anti-EGFR zalutumumab variant, human IgG1) VH: QVQLVESGGGVVQPGRSLRLSCAASGFTFSTYGMHWVRQAPGKGLEWVAVIWDDGSYKYYGDSVKGRFTISRDNSKNTLYLQMNSLRAEDTAVYYCARDGATMVRGVMKDYFDYWGQGTLVTVSS VL: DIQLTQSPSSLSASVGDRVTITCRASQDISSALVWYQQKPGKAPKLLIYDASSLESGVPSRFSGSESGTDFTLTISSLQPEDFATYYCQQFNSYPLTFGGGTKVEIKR" assay_value=-1.90
binder="ZalH7 (antibody, human IgG1, kappa, V domains shown, anti-EGFR zalutumumab variant, human IgG1) VH: QVQLVESGGGVVQPGRSLRLSCAASGFTFSSYGMHWVRQAPGKGLEWVAVIWEDGSYKYYGDSVKGRFTISRDNSKNTLYLQMNSLRAEDTAVYYCARDGITMVRGVMKDYFDYWGQGTLVTVSS VL: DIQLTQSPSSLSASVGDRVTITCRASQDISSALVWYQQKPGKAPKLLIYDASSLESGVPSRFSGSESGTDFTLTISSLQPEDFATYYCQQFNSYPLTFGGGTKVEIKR" assay_value=-2.12
binder="ZalH12 (antibody, human IgG1, kappa, V domains shown, anti-EGFR zalutumumab variant, human IgG1) VH: QVQLVESGGGVVQPGRSLRLSCAASGFTFSTYGMHWVRQAPGKGLEWVAVIWDDGSNKYYGDSVKGRFTISRDNSKNTLYLQMNSLRAEDTAVYYCARDGITMVRGVMKDYFDYWGQGTLVTVSS VL: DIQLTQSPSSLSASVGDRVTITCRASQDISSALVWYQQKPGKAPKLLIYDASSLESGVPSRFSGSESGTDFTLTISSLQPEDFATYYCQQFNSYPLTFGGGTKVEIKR" assay_value=-1.84
